- testedTarget: UniProtKB P13569
- Sequence (P13569 with tags, fused parts or gaps DEL508-508): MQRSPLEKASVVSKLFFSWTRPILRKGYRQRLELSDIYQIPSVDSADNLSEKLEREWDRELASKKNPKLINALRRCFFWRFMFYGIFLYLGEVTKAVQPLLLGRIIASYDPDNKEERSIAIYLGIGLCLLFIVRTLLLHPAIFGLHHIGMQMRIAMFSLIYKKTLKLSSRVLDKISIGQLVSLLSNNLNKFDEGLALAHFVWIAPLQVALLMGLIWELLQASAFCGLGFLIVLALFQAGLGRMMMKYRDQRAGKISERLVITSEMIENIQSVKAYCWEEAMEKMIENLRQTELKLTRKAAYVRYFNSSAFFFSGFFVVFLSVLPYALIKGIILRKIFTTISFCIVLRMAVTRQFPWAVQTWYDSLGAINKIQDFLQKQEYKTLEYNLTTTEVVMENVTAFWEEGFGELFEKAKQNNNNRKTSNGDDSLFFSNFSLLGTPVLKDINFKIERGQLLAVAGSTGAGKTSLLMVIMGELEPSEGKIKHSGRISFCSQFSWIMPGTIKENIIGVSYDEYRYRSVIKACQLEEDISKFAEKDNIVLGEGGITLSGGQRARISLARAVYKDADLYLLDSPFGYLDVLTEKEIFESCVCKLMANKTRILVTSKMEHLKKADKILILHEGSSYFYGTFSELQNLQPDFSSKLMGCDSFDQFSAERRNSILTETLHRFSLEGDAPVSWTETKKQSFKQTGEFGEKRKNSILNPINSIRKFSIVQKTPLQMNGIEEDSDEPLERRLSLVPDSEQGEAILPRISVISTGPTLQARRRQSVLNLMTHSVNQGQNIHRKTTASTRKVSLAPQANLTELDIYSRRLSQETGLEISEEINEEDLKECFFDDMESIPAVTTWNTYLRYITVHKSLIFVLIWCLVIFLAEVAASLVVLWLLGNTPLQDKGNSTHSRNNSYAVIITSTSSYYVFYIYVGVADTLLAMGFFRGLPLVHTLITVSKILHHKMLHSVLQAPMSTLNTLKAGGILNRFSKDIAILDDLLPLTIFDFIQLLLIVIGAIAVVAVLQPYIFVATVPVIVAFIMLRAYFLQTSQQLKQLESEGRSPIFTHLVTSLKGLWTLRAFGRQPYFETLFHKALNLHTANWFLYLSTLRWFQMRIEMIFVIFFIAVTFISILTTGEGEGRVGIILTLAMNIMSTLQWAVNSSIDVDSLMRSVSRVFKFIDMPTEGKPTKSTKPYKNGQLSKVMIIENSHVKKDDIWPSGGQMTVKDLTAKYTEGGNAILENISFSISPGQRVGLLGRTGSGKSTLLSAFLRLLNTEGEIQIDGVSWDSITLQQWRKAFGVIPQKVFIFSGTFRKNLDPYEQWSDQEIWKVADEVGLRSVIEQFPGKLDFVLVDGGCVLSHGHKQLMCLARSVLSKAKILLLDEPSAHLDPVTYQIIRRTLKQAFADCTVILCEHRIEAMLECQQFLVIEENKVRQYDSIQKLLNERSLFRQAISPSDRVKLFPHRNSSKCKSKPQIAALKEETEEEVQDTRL
- assayText: Membrane potential dye, Enteroid Assay B
- Format: cell-based
- measurementContext: Table 8; human enteroid cells, 18-24 hours; acute 10 μM forskolin and 300 nM ivacaftor; read-out: Ent. B EC50
Consider the following molecules and their measured EC50 readings.

-- ask Can you look up the measured EC50 of "Cc1cccc(C)c1-c1cc2nc(n1)NS(=O)(=O)c1cccc(c1)C(=O)N(CCCC(C)(C)O)[C@H](CC(C)(C)O)CO2" for me?
-- reply 1000 to 3000 nM

-- ask What about "Cc1cccc(C)c1-c1cc2nc(n1)NS(=O)(=O)c1cccc(c1)C(=O)N(CC(C)(C)C)[C@H](CC(C)C)CO2" ?
-- reply < 1000 nM

-- ask What about "Cc1cccc(C)c1-c1cc2nc(n1)NS(=O)(=O)c1cccc(c1)C(=O)N(Cc1ccc(C(C)(C)O)cc1)[C@H](CC(C)(C)O)CO2" ?
-- reply < 1000 nM
